For each entry below, report its IC50 value.
# measured.target: VIM-1 (Pseudomonas aeruginosa (strain ATCC 15692 / DSM 22644 / CIP 104116 / JCM 14847 / LMG 12228 / 1C / PRS 101 / PAO1), UniProt A0A0F7KYQ8)
# assay.remarks: biochemical
# test.settings: CCF2-FA substrate, 2 hours at 25° C
Numeric answer only, unit nM assumed.

[Q] Entry NCCS(=O)(=O)c1ccc(-c2cnc(N)c(F)c2)c(-c2nnn[nH]2)c1S(N)(=O)=O.O=C(O)C(F)(F)F [Example 168, 2,2,2-trifluoroacetate] has what IC50?
[A] 0.515

[Q] Entry NCCS(=O)(=O)c1ccc(-c2cccc3nc(C(=O)O)nn23)c(-c2nnn[nH]2)c1S(N)(=O)=O [Example 304] has what IC50?
[A] 0.478

[Q] Entry NS(=O)(=O)c1c(S(=O)(=O)C2CNC2)ccc(-c2cccc3c2CNC3=O)c1-c1nnn[nH]1.O=C(O)C(F)(F)F [Example 113, 2,2,2-trifluoroacetate] has what IC50?
[A] 0.164

[Q] Entry NC[C@H](CO)S(=O)(=O)c1ccc(-c2cccc3nc(N)[nH]c23)c(-c2nn[nH]n2)c1S(N)(=O)=O [Example 351] has what IC50?
[A] 0.711

[Q] Entry CSc1ccc(-c2ccc(C3CCNCC3)cc2)c(-c2nnn[nH]2)c1S(N)(=O)=O [Example 234] has what IC50?
[A] 13.9

[Q] Entry Nc1nc2cccc(-c3ccc([S+]([O-])C4CCNCC4)c(S(N)(=O)=O)c3-c3nn[nH]n3)c2[nH]1 (stereo not shown) [Example 14] has what IC50?
[A] 0.868

[Q] Entry CNc1ncc(-c2ccc(S(=O)(=O)C3CNC3)c(S(N)(=O)=O)c2-c2nnn[nH]2)cn1.O=C(O)C(F)(F)F [Example 106, 2,2,2-trifluoroacetate] has what IC50?
[A] 1.59

[Q] Entry NS(=O)(=O)c1c(S(=O)(=O)C2CNC2)ccc(-c2ccc3nccnc3c2)c1-c1nnn[nH]1.O=C(O)C(F)(F)F [Example 117, 2,2,2-trifluoroacetate] has what IC50?
[A] 0.431

[Q] Entry NS(=O)(=O)c1c(S(=O)(=O)C2CNC2)ccc([C@H]2CC[C@H](N)CC2)c1-c1nnn[nH]1 [Example 212] has what IC50?
[A] 0.864

[Q] Entry Nc1ncccc1-c1cc(-c2ccc(S(=O)(=O)C3CNC3)c(S(N)(=O)=O)c2-c2nnn[nH]2)ccn1 [Example 310] has what IC50?
[A] 0.319

---

# Test system: P. aeruginosa expressing IMP-1, efflux+ (MB9798)
# Assay type: cell-based, Pseudomonas aeruginosa
# test.settings: ratio MITC95 PA_9798/MITC95 PA_9799
For each entry below, report its Efflux ratio value.
Lab note: record the figure alone, no unit after it.

[Q] Entry NCCS(=O)(=O)c1ccc(-c2cccc3[nH]c(C(F)(F)CN)nc23)c(-c2nn[nH]n2)c1S(N)(=O)=O has what Efflux ratio?
[A] 1.00

[Q] Entry NS(=O)(=O)c1c(S(=O)(=O)C2CNC2)ccc(-c2cccc(C3CCC(=O)N3)c2)c1-c1nnn[nH]1.O=C(O)C(F)(F)F (stereo not drawn) has what Efflux ratio?
[A] 16.00

[Q] Entry Cn1cc2ccc(-c3ccc(S(=O)(=O)CCN)c(S(N)(=O)=O)c3-c3nnn[nH]3)cc2n1.O=C(O)C(F)(F)F has what Efflux ratio?
[A] 8.00

[Q] Entry Cc1n[nH]c2ccc(-c3ccc(S(=O)(=O)C4CNC4)c(S(N)(=O)=O)c3-c3nnn[nH]3)cc12.O=C(O)C(F)(F)F has what Efflux ratio?
[A] 8.00

[Q] Entry NCCS(=O)(=O)c1ccc(-c2cccc3sc(NC(N)=O)nc23)c(-c2nn[nH]n2)c1S(N)(=O)=O has what Efflux ratio?
[A] 2.00

[Q] Entry NCCS(=O)(=O)c1ccc(-c2cccc(-c3c[nH]c(N)n3)c2)c(-c2nnn[nH]2)c1S(N)(=O)=O has what Efflux ratio?
[A] 8.00

---

# measured.target: NDM-1 (Klebsiella pneumoniae, UniProt C7C422)
# Sequence (C7C422 whole entry, looked up, species assumed): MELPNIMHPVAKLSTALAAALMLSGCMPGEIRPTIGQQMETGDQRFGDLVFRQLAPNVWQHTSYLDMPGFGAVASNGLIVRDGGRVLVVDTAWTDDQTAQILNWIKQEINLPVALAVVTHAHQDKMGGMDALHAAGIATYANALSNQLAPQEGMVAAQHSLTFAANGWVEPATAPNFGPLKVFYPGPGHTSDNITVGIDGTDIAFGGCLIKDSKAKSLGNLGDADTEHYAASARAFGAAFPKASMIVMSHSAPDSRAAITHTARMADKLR
# assay.remarks: biochemical
# Format: biochemical
# test.settings: CCF2-FA substrate, 2 hours at 25° C; read-out: NDM-1 IC50
readout.kind: pIC50
pIC50 is a log-scale quantity: -log10 of the concentration expressed in molar.

[Q] Entry NS(=O)(=O)c1c(S(=O)(=O)C2CNC2)ccc(-c2cccc3c2CNC3=O)c1-c1nnn[nH]1.O=C(O)C(F)(F)F [Example 113, 2,2,2-trifluoroacetate] has what pIC50?
[A] 9.86

[Q] Entry Nc1ccc2c(-c3ccc(S(=O)(=O)C4CNC4)c(S(N)(=O)=O)c3-c3nnn[nH]3)ccnc2n1 has what pIC50?
[A] 9.73

[Q] Entry Nc1nc2cccc(-c3ccc(SC4CCNCC4)c(S(N)(=O)=O)c3-c3nn[nH]n3)c2[nH]1 has what pIC50?
[A] 8.49

[Q] Entry C[C@@H](N)CS(=O)(=O)c1ccc(-c2cccc3[nH]c(N)nc23)c(-c2nn[nH]n2)c1S(N)(=O)=O has what pIC50?
[A] 9.67

[Q] Entry CS(=O)(=O)c1ccc(-c2cccc3cn[nH]c23)c(-c2nn[nH]n2)c1S(N)(=O)=O has what pIC50?
[A] 9.36

[Q] Entry NCCNC(=O)c1ccccc1-c1ccc(S(=O)(=O)CCN)c(S(N)(=O)=O)c1-c1nn[nH]n1 has what pIC50?
[A] 7.81

[Q] Entry NS(=O)(=O)c1c(S(=O)(=O)C2CNC2)ccc(-c2ccc3cn[nH]c3c2)c1-c1nnn[nH]1.O=C(O)C(F)(F)F [Example 127, 2,2,2-trifluoroacetate] has what pIC50?
[A] 9.37

[Q] Entry C[C@H](N)CS(=O)(=O)c1ccc(-c2cccc3[nH]c(N)nc23)c(-c2nn[nH]n2)c1S(N)(=O)=O has what pIC50?
[A] 9.85

---

# measured.target: IMP-1 (Serratia marcescens, UniProt P52699)
# Sequence (P52699 whole entry, looked up, species assumed): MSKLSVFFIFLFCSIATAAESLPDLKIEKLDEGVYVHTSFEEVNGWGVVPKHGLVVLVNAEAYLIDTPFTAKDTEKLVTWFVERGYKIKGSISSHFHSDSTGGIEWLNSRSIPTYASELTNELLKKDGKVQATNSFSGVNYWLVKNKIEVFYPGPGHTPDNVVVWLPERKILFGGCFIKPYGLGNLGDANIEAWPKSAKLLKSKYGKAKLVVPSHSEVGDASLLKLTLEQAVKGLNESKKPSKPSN
# assay.remarks: biochemical
# Type: biochemical
# test.settings: CCF2-FA substrate, 2 hours at 25° C; read-out: IMP-1 IC50
readout.kind: pIC50
pIC50 is a log-scale quantity: -log10 of the concentration expressed in molar.

[Q] Lookup: pIC50 / IMP-1 (Serratia marcescens, UniProt P52699) / Cc1ccc2cccc(-c3ccc(S(=O)(=O)C4CNC4)c(S(N)(=O)=O)c3-c3nnn[nH]3)c2n1.O=C(O)C(F)(F)F [Example 122, 2,2,2-trifluoroacetate]
[A] 9.24

[Q] Lookup: pIC50 / IMP-1 (Serratia marcescens, UniProt P52699) / Nc1nc2c(-c3ccc(S(=O)(=O)CCN4CCOCC4=O)c(S(N)(=O)=O)c3-c3nn[nH]n3)cccc2s1
[A] 9.46

[Q] Lookup: pIC50 / IMP-1 (Serratia marcescens, UniProt P52699) / NS(=O)(=O)c1c(S(=O)(=O)C2CNC2)ccc(-c2cccc3nccn23)c1-c1nnn[nH]1
[A] 8.01

[Q] Lookup: pIC50 / IMP-1 (Serratia marcescens, UniProt P52699) / CS(=O)(=O)Nc1nc2c(-c3ccc(S(=O)(=O)CCN)c(S(N)(=O)=O)c3-c3nn[nH]n3)cccc2s1
[A] 9.47

[Q] Lookup: pIC50 / IMP-1 (Serratia marcescens, UniProt P52699) / Nc1nc2cccc(-c3ccc(S(=O)(=O)[C@H]4CC[C@H](N)CC4)c(S(N)(=O)=O)c3-c3nn[nH]n3)c2[nH]1
[A] 9.00

[Q] Lookup: pIC50 / IMP-1 (Serratia marcescens, UniProt P52699) / NS(=O)(=O)c1c(S(=O)(=O)C2CNC2)ccc(-c2cccc3ccnn23)c1-c1nnn[nH]1.O=C(O)C(F)(F)F [Example 102, 2,2,2-trifluoroacetate]
[A] 9.04

[Q] Lookup: pIC50 / IMP-1 (Serratia marcescens, UniProt P52699) / Nc1n[nH]c2cc(-c3ccc(S(=O)(=O)C4CNC4)c(S(N)(=O)=O)c3-c3nn[nH]n3)ccc12
[A] 8.92

---

For each entry below, report its Efflux ratio value.
# Tested on: P. aeruginosa expressing IMP-1, efflux+ (MB9798)
# Format: cell-based, Pseudomonas aeruginosa
# test.settings: ratio MITC95 PA_9798/MITC95 PA_9799
Lab note: record the figure alone, no unit after it.

[Q] Lookup: Efflux ratio / P. aeruginosa expressing IMP-1, efflux+ (MB9798) / Nc1nc2c(-c3ccc(S(=O)(=O)C4CNC4)c(S(N)(=O)=O)c3-c3nn[nH]n3)ccc(C(F)(F)F)c2s1
[A] 8.00

[Q] Lookup: Efflux ratio / P. aeruginosa expressing IMP-1, efflux+ (MB9798) / NCc1nc2c(-c3ccc(S(=O)(=O)C[C@H](O)CN)c(S(N)(=O)=O)c3-c3nn[nH]n3)cccc2[nH]1
[A] 1.00

[Q] Lookup: Efflux ratio / P. aeruginosa expressing IMP-1, efflux+ (MB9798) / Nc1cn2cccc(-c3ccc(S(=O)(=O)C4CNC4)c(S(N)(=O)=O)c3-c3nnn[nH]3)c2n1
[A] 4.00

[Q] Lookup: Efflux ratio / P. aeruginosa expressing IMP-1, efflux+ (MB9798) / Nc1cncc(-c2ccc(S(=O)(=O)C3CNC3)c(S(N)(=O)=O)c2-c2nnn[nH]2)c1.O=C(O)C(F)(F)F
[A] 4.00
